# Tested on: MDR ETEC (multidrug-resistant enterotoxigenic Escherichia coli)
# settings: MDR ETEC clinical isolate; 96-well microtiter plates, 10^4 CFU/mL inoculum, 48 h at 37 °C, absorbance 600 nm; lowest concentration that completely inhibits visible growth
Ends that are not written are not given here.
Recorded MIC for the following substances
measurement kind: MIC (µg/mL)

- KKFATIAKKFINWLW [Peptide Q4-15-2]: 4
- KKFATIAKKFINKLW-NH2 [Peptide Q4-15a-1]: 4
- KKFATIAKKFINWLW-NH2 [Peptide Q4-15a-2]: 2
- GANAAKKFATIAKKFINYLW [GW-Q4]: 32
- KKFATIAKKFINYLW-NH2 [Peptide Q4-15a]: 4
- KKFATIAKKFINYLW [Peptide Q4-15]: 8
- KKFATIAKKFINKLW [Peptide Q4-15-1]: 8
- GANAAKKFATIAKKFINYLW-NH2 [GW-Q4a]: 8
